Reference for the values: ChEMBL document CHEMBL2440076

For each of the compounds below, state its growth at 0.005 µM.
- System: T47D
- test.description: Growth inhibition of human T47D cells assessed as cell growth at 5X10'-9 M after 48 hrs by sulforhodamine B assay
- Type: functional
- measurement.setup: read-out: Activity
Answer format: numeric, % implied, no suffix.

Field request: growth at 0.005 µM | item: `O=C(Nc1cccc(-n2cc(-c3ccncc3)c(-c3ccc(Cl)c(O)c3)n2)c1)Nc1cc(C(F)(F)F)cc(C(F)(F)F)c1`
97

I'd like to know its growth at 0.005 µM. The compound in question is `O=C(Nc1cccc(-n2cc(-c3ccncc3)c(-c3ccc(Cl)c(O)c3)n2)c1)c1ccc(N2CCOCC2)c(C(F)(F)F)c1`
97

Any idea what growth at 0.005 µM was measured for `COc1cc(-c2nn(-c3cccc(NC(=O)Nc4ccc(Cl)c(Cl)c4)c3)cc2-c2ccncc2)ccc1Cl` ?
97

Record request: growth at 0.005 µM value, item `COc1cc(-c2nn(-c3cccc(NC(=O)Nc4cc(C(F)(F)F)cc(C(F)(F)F)c4)c3)cc2-c2ccncc2)ccc1Cl`
101

====

- Tested on: M14
- test.description: Growth inhibition of human M14 cells after 48 hrs by sulforhodamine B assay
- Type: functional
- measurement.setup: M14, 48 h
measure: LC50 (concentration killing 50% of cells)

Please report the recorded LC50 (concentration killing 50% of cells) for `COc1cc(-c2nn(-c3cccc(NC(=O)Nc4ccc(Cl)c(Cl)c4)c3)cc2-c2ccncc2)ccc1Cl` .
41.2 µM

Quick check: LC50 (concentration killing 50% of cells) of `O=C(Nc1cccc(-n2cc(-c3ccncc3)c(-c3ccc(Cl)c(O)c3)n2)c1)Nc1cccc(C(F)(F)F)c1` ?
> 32.5 µM

What LC50 (concentration killing 50% of cells) value was documented for this compound, `O=C(Nc1cccc(-n2cc(-c3ccncc3)c(-c3ccc(Cl)c(O)c3)n2)c1)Nc1ccc(Cl)c(Cl)c1` ?
> 32.5 µM

Quick check: LC50 (concentration killing 50% of cells) of `COc1cc(-c2nn(-c3cccc(NC(=O)c4ccc(Cl)c(C(F)(F)F)c4)c3)cc2-c2ccncc2)ccc1Cl` ?
> 32.5 µM

Item `COc1cc(-c2nn(-c3cccc(NC(=O)c4ccccc4)c3)cc2-c2ccncc2)ccc1Cl` has what recorded LC50 (concentration killing 50% of cells)?
> 100 µM

Value lookup for LC50 (concentration killing 50% of cells); key = `O=C(Nc1cccc(-n2cc(-c3ccncc3)c(-c3ccc(Cl)c(O)c3)n2)c1)Nc1ccc(Cl)c(C(F)(F)F)c1`
> 32.5 µM

====

- System: IGROV-1
- test.description: Growth inhibition of human IGROV1 cells after 48 hrs by sulforhodamine B assay
- Format: functional
- measurement.setup: IGROV-1, 48 h
measure: LC50 (concentration killing 50% of cells)

For the molecule `O=C(Nc1cccc(-n2cc(-c3ccncc3)c(-c3ccc(Cl)c(O)c3)n2)c1)Nc1cccc(C(F)(F)F)c1` , what LC50 (concentration killing 50% of cells) is on record?
> 32.5 µM

Name the recorded LC50 (concentration killing 50% of cells) for `O=C(Nc1cccc(-n2cc(-c3ccncc3)c(-c3ccc(Cl)c(O)c3)n2)c1)c1ccc(N2CCOCC2)c(C(F)(F)F)c1` .
> 50 µM

What measured LC50 (concentration killing 50% of cells) goes with `COc1cc(-c2nn(-c3cccc(NC(=O)c4cccc(C(F)(F)F)c4)c3)cc2-c2ccncc2)ccc1Cl` ?
> 50 µM

Look up LC50 (concentration killing 50% of cells) for this molecule: `COc1cc(-c2nn(-c3cccc(NC(=O)c4ccc(N5CCOCC5)c(C(F)(F)F)c4)c3)cc2-c2ccncc2)ccc1Cl`
> 100 µM

Please look up its LC50 (concentration killing 50% of cells): `COc1cc(-c2nn(-c3cccc(NC(=O)Nc4cc(C(F)(F)F)cc(C(F)(F)F)c4)c3)cc2-c2ccncc2)ccc1Cl`
23.7 µM

For `O=C(Nc1cccc(-n2cc(-c3ccncc3)c(-c3ccc(Cl)c(O)c3)n2)c1)Nc1cc(C(F)(F)F)cc(C(F)(F)F)c1` , what is its reported LC50 (concentration killing 50% of cells)?
38.2 µM

====

- Test system: SK-MEL-28
- test.description: Growth inhibition of human SK-MEL-28 cells after 48 hrs by sulforhodamine B assay
- Type: functional
- measurement.setup: SK-MEL-28, 48 h
measure: LC50 (µM)
Write down the numeric answer in µM and omit the unit.

If you can, please state the reported LC50 value of `O=C(Nc1cccc(-n2cc(-c3ccncc3)c(-c3ccc(Cl)c(O)c3)n2)c1)c1ccc(N2CCOCC2)c(C(F)(F)F)c1` .
42.9

Any idea what LC50 was measured for `O=C(Nc1cccc(-n2cc(-c3ccncc3)c(-c3ccc(Cl)c(O)c3)n2)c1)Nc1ccc(Cl)c(C(F)(F)F)c1` ?
12.4

Need LC50 of `COc1cc(-c2nn(-c3cccc(NC(=O)Nc4cccc(C(F)(F)F)c4)c3)cc2-c2ccncc2)ccc1Cl` , thanks.
21.1

If you can, please state the reported LC50 value of `O=C(Nc1cccc(-n2cc(-c3ccncc3)c(-c3ccc(Cl)c(O)c3)n2)c1)Nc1cc(C(F)(F)F)cc(C(F)(F)F)c1` .
3.09

====

- System: HOP-62
- test.description: Growth inhibition of human HOP62 cells after 48 hrs by sulforhodamine B assay
- Format: functional
- measurement.setup: HOP-62, 48 h, read-out: LC50 (the source's name)
I'd be grateful if you could share measured CC50 for these entries.

Would you kindly share the measured CC50 for `COc1cc(-c2nn(-c3cccc(NC(=O)Nc4cccc(C(F)(F)F)c4)c3)cc2-c2ccncc2)ccc1Cl` ?
> 50 µM

Dear colleague, I am looking for the recorded CC50 of the following compound: `O=C(Nc1cccc(-n2cc(-c3ccncc3)c(-c3ccc(Cl)c(O)c3)n2)c1)Nc1ccc(Cl)c(Cl)c1`
> 32.5 µM

Bench note: what CC50 did `COc1cc(-c2nn(-c3cccc(NC(=O)Nc4ccc(Cl)c(Cl)c4)c3)cc2-c2ccncc2)ccc1Cl` show?
> 50 µM

Item `COc1cc(-c2nn(-c3cccc(NC(=O)Nc4cc(C(F)(F)F)cc(C(F)(F)F)c4)c3)cc2-c2ccncc2)ccc1Cl` has what recorded CC50?
2.95 µM

Report CC50 for `O=C(Nc1cccc(-n2cc(-c3ccncc3)c(-c3ccc(Cl)c(O)c3)n2)c1)Nc1cc(C(F)(F)F)cc(C(F)(F)F)c1` please.
4.07 µM

What measured CC50 goes with `COc1cc(-c2nn(-c3cccc(NC(=O)c4ccc(N5CCOCC5)c(C(F)(F)F)c4)c3)cc2-c2ccncc2)ccc1Cl` ?
> 100 µM

Fill blank: measured CC50 of the compound `COc1cc(-c2nn(-c3cccc(NC(=O)c4cccc(C(F)(F)F)c4)c3)cc2-c2ccncc2)ccc1Cl` is ____.
> 50 µM

====

- Tested on: SNB-75
- test.description: Growth inhibition of human SNB75 cells after 48 hrs by sulforhodamine B assay
- Assay type: functional
- measurement.setup: SNB-75, 48 h
Give LC50 (lethal concentration, 50% net cell kill) for every item shown.

// query LC50 (lethal concentration, 50% net cell kill) value for entry `O=C(Nc1cccc(-n2cc(-c3ccncc3)c(-c3ccc(Cl)c(O)c3)n2)c1)Nc1ccc(Cl)c(C(F)(F)F)c1`
> 32.5 µM

Report LC50 (lethal concentration, 50% net cell kill) for `O=C(Nc1cccc(-n2cc(-c3ccncc3)c(-c3ccc(Cl)c(O)c3)n2)c1)Nc1cc(C(F)(F)F)cc(C(F)(F)F)c1` please.
7.03 µM

Item under review: `COc1cc(-c2nn(-c3cccc(NC(=O)c4ccc(N5CCOCC5)c(C(F)(F)F)c4)c3)cc2-c2ccncc2)ccc1Cl` . Reported LC50 (lethal concentration, 50% net cell kill)?
> 100 µM

Returns the measured LC50 (lethal concentration, 50% net cell kill) for the input compound. Input: `COc1cc(-c2nn(-c3cccc(NC(=O)c4ccccc4)c3)cc2-c2ccncc2)ccc1Cl`
> 100 µM

// returns reported LC50 (lethal concentration, 50% net cell kill) for input `COc1cc(-c2nn(-c3cccc(NC(=O)Nc4ccc(Cl)c(Cl)c4)c3)cc2-c2ccncc2)ccc1Cl`
> 50 µM

====

- Tested on: CCRF-CEM
- test.description: Growth inhibition of human CCRF-CEM cells after 48 hrs by sulforhodamine B assay
- Type: functional
Record form. Attribute: GI50. Fill in for each entry.
Entry rule: numbers only, all in nM.

Request the reported GI50 associated with `COc1cc(-c2nn(-c3cccc(NC(=O)Nc4cc(C(F)(F)F)cc(C(F)(F)F)c4)c3)cc2-c2ccncc2)ccc1Cl`
498

Given the entry `COc1cc(-c2nn(-c3cccc(NC(=O)Nc4ccc(Cl)c(Cl)c4)c3)cc2-c2ccncc2)ccc1Cl` , report its measured GI50.
1040

GI50 for `COc1cc(-c2nn(-c3cccc(NC(=O)Nc4cccc(C(F)(F)F)c4)c3)cc2-c2ccncc2)ccc1Cl` ?
945

Given `COc1cc(-c2nn(-c3cccc(NC(=O)Nc4ccc(Cl)c(C(F)(F)F)c4)c3)cc2-c2ccncc2)ccc1Cl` , state its recorded GI50.
980

Item `O=C(Nc1cccc(-n2cc(-c3ccncc3)c(-c3ccc(Cl)c(O)c3)n2)c1)Nc1cc(C(F)(F)F)cc(C(F)(F)F)c1` has what recorded GI50?
789
